# Test system: NCI-H23 lung
# assay-info: NCI-60 one-dose screen, 48 h (100 = growth as untreated, 0 = no growth, -100 = all killed)
# condition-context: 10 µM unless noted
Compounds without any hit were thinned out: in the full panel of roughly 83,000, 20% have a hit. The source made the active and inactive calls. How the source made its calls: active means growth percent below 10; inactive means the rest.
attribute-measured: growth

// worked examples, growth included
- Cc1cc(C(C)(C)C)ccc1O: 90.9% (inactive)
- CC(C)CCC1C(=O)NC(=O)NC1=O: 99.4% (inactive)
- CCC(=O)C(CC(C)[N+](C)(C)C)(c1ccccc1)c1ccccc1 (stereo unspecified): 91.7% (inactive)
- COC[C@H]1OC(=O)c2coc3c2[C@@]1(C)C1=C(C3=O)[C@@H]2CCC(=O)[C@@]2(C)C[C@H]1OC(C)=O: 56.5% (inactive)
- CCOC(=O)c1cncn1C(C)c1ccccc1 (stereo unspecified): 118% (inactive)

Consider the record given below.
Query: Could you share what growth was measured for N#Cc1ccc(Cl)cc1 , tested on NCI-H23 lung?
Reply: 111% (inactive)

Measured values drawn from PubChem BioAssay (NCI) for this set.
